Consider the following variants and their measured self-cleavage readings.
B1: HDV Ribozyme (parent)
chain: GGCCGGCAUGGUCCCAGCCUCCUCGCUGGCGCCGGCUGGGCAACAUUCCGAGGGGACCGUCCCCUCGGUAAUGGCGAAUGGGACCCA

variants of: B1; assay: self-cleavage, relative activity (ratio to wild type); higher = more cleavage; co-transcriptional
Simply state the number, no unit and no words.

Observe how each entry below is paired with its result.
{"columns": ["sequence-change", "self-cleavage"],
 "data": [
  ["C14U U46G", 0.875],
  ["U23C U47G", 1.28]
]}

Query: Consider the variant shown here: G2A G17U What is its recorded self-cleavage?
Result: 0.0432

Query: Again, but for C22A G80A
Result: 0.0479

Query: Again, but for U79A C86U
Result: 1.02

Query: Again, but for G10C C57U
Result: 1.11

Query: Again, but for C15A C26A
Result: 0.529

Query: Again, but for G29A C36U
Result: 0.0264

Query: Again, but for G6C G68U
Result: 0.277

Query: Again, but for C21G A43U
Result: 0

Query: Again, but for C22A C63A
Result: 0.166

Query: Again, but for "U12A"
Result: 0.309

Query: Again, but for C30G A42G
Result: 0.0415

Query: Again, but for G34C G50C
Result: 0.288

Query: Again, but for G10A C48U
Result: 0.895
